Collected EC50 values appear next to each entry.
molecular target: T1, human CLDN-18.2 (human, UniProt P56856 1-261); assay: flow cytometry on NUGC4-CLDN-18.2 cells overexpressing human CLDN-18.2, 4 °C 30 min, fluorescent secondary antibody, MFI-PE
T1 construct: also called Claudin18.2
Respond numerically; units are µg/mL and should not be typed.

Q. I would be grateful if you could share the reported EC50 for JS012-Chi2-hu2-v3-2a (antibody, human IgG1, kappa, V domains shown, also called JS107-5) VH: EVQLVESGGGLVQPGGSLRLSCAASGFTLNNFGMHWVRQAPGKGLEWVSSISSGSGTIYYADSVKGRFTISRDNPKNSLYLQMNSLRAEDTAVYYCARAYYGNGFSFWGQGTLVTVSS VL: DIVMTQSPDSLAVSLGERATINCKSSQSLLNSGNQKNYLTWYQQKPGQPPKLLIYWASTRESGVPDRFSGSGSGTDFTLTISSLQAEDVAVYYCQNVYSYPLTFGQGTKLEIKR .
A. 0.347

Q. I would be grateful if you could share the reported EC50 for JS012-Chi2-hu2-v3-2 (antibody, human IgG1, kappa, V domains shown, also called JS107-4) VH: EVQLVESGGGLVQPGGSLRLSCAASGFTLNNFGMHWVRQAPGKGLEWVSSISSGSGTIYYADSVKGRFTISRDNPKNSLYLQMNSLRAEDTAVYYCARAYYGNGFSFWGQGTLVTVSS VL: DIVMTQSPDSLAVSLGERATINCKSSQSLLNSGNQKNYLTWYQQKPGQPPKLLIYWASTRESGVPDRFSGSGSGTDFTLTISSLQAEDVAVYYCQNVYSYPLTFGQGTKLEIKR .
A. 1.65

Q. I would be grateful if you could share the reported EC50 for JS012-Chi9-hu7 (antibody, human IgG1, kappa, V domains shown, also called JS107-3; JS012-chi9-hu07) VH: QIQLVQSGSELKKPGESVKVSCKASGYTFTNYGMNWVRQAPGQGLEWMGWINTYTGESTYADGFTGRFVFSSDTSARTAYLQISSLKAEDTAVYFCATLGYGNSLAYWGQGTLVTVSS VL: DIVMTQSPDSLAVSLGERATINCKSSQSLLNSGNQRNYLTWYQQKPGQPPKLLIYWASTRESGVPDRFSGSGSGTDFTLTISSLQAEDVAVYYCQNNYFYPFTFGQGTKLEIKR .
A. 3.76

Q. I would be grateful if you could share the reported EC50 for ADC-3-MMAE (antibody, V domains shown, MC-VC-PAB-MMAE (vc-MMAE) coupled after TCEP reduction of the antibody; positions not given; DAR 3.97, also called JS107-3-MMAE) VH: QIQLVQSGSELKKPGESVKVSCKASGYTFTNYGMNWVRQAPGQGLEWMGWINTYTGESTYADGFTGRFVFSSDTSARTAYLQISSLKAEDTAVYFCATLGYGNSLAYWGQGTLVTVSS VL: DIVMTQSPDSLAVSLGERATINCKSSQSLLNSGNQRNYLTWYQQKPGQPPKLLIYWASTRESGVPDRFSGSGSGTDFTLTISSLQAEDVAVYYCQNNYFYPFTFGQGTKLEIKR .
A. 2.96

Q. I would be grateful if you could share the reported EC50 for ADC-5-MMAE (antibody, human IgG1, kappa, V domains shown, MC-VC-PAB-MMAE (vc-MMAE) coupled after TCEP reduction of the antibody; positions not given; DAR 4.1, also called JS107-5-MMAE) VH: EVQLVESGGGLVQPGGSLRLSCAASGFTLNNFGMHWVRQAPGKGLEWVSSISSGSGTIYYADSVKGRFTISRDNPKNSLYLQMNSLRAEDTAVYYCARAYYGNGFSFWGQGTLVTVSS VL: DIVMTQSPDSLAVSLGERATINCKSSQSLLNSGNQKNYLTWYQQKPGQPPKLLIYWASTRESGVPDRFSGSGSGTDFTLTISSLQAEDVAVYYCQNVYSYPLTFGQGTKLEIKR .
A. 0.23

Q. I would be grateful if you could share the reported EC50 for ADC-4-MMAF (antibody, human IgG1, kappa, V domains shown, MC-MMAF coupled after TCEP reduction of the antibody; positions not given; DAR 3.85, also called JS107-4-MMAF) VH: EVQLVESGGGLVQPGGSLRLSCAASGFTLNNFGMHWVRQAPGKGLEWVSSISSGSGTIYYADSVKGRFTISRDNPKNSLYLQMNSLRAEDTAVYYCARAYYGNGFSFWGQGTLVTVSS VL: DIVMTQSPDSLAVSLGERATINCKSSQSLLNSGNQKNYLTWYQQKPGQPPKLLIYWASTRESGVPDRFSGSGSGTDFTLTISSLQAEDVAVYYCQNVYSYPLTFGQGTKLEIKR .
A. 1.21

Q. I would be grateful if you could share the reported EC50 for ADC-4-MMAE (antibody, human IgG1, kappa, V domains shown, MC-VC-PAB-MMAE (vc-MMAE) coupled after TCEP reduction of the antibody; positions not given; DAR 4.55, also called JS107-4-MMAE) VH: EVQLVESGGGLVQPGGSLRLSCAASGFTLNNFGMHWVRQAPGKGLEWVSSISSGSGTIYYADSVKGRFTISRDNPKNSLYLQMNSLRAEDTAVYYCARAYYGNGFSFWGQGTLVTVSS VL: DIVMTQSPDSLAVSLGERATINCKSSQSLLNSGNQKNYLTWYQQKPGQPPKLLIYWASTRESGVPDRFSGSGSGTDFTLTISSLQAEDVAVYYCQNVYSYPLTFGQGTKLEIKR .
A. 0.495
